FYI, the data here is from ChEMBL document CHEMBL1126849.

- System: Rattus norvegicus
- protocol: Biodistribution in kidney of immature female rat after 3 hour administration of 3 micro Ci (111 kBq) in the absence of 60 microg estradiol
- Format: ADME, organism-based
- condition description: in vivo
Quick reference: ID/g of the listed items.
State the value, then name its unit.

Examples with answers:
C[C@]12CC[C@@H]3c4cc(F)c(O)cc4CC[C@H]3[C@@H]1CC[C@@]2(O)/C=C/I	0.47%
C[C@@H]1Cc2cc(O)c(F)cc2[C@H]2CC[C@@]3(C)[C@@H](CC[C@@]3(O)/C=C\I)[C@H]12	0.69%
C[C@@H]1Cc2c(ccc(O)c2F)[C@H]2CC[C@@]3(C)[C@@H](CC[C@@]3(O)/C=C\I)[C@H]12	0.85%

Measured ID/g of `C[C@@H]1Cc2cc(O)c(F)cc2[C@H]2CC[C@@]3(C)[C@@H](CC[C@@]3(O)/C=C/I)[C@H]12` : 0.29%

Measured ID/g of `CO[C@H]1C[C@@]2(C)[C@@H](CC[C@@]2(O)/C=C/I)[C@@H]2CCc3cc(O)c(F)cc3[C@H]21` : 0.96%

Measured ID/g of `C[C@@H]1Cc2c(ccc(O)c2F)[C@H]2CC[C@@]3(C)[C@@H](CC[C@@]3(O)/C=C/I)[C@H]12` : 0.95%

----------
Quick reference: uterus to blood ratio of the listed items.
- Tested on: Rattus norvegicus
- protocol: Biodistribution in uterus / blood of immature female rat after 5 hour administration of 3 micro Ci (111 kBq) in the absence of 60 microg estradiol
- Assay type: ADME, organism-based
- condition description: in vivo
State the value, then name its unit.

C[C@]12CC[C@@H]3c4ccc(O)c(F)c4CC[C@H]3[C@@H]1CC[C@@]2(O)/C=C/I	9.01%
C[C@]12CC[C@@H]3c4cc(F)c(O)cc4CC[C@H]3[C@@H]1CC[C@@]2(O)/C=C/I	1.15%
C[C@@H]1Cc2cc(O)c(F)cc2[C@H]2CC[C@@]3(C)[C@@H](CC[C@@]3(O)/C=C/I)[C@H]12	3.69%

Measured uterus to blood ratio of `CO[C@H]1C[C@@]2(C)[C@@H](CC[C@@]2(O)/C=C\I)[C@@H]2CCc3c(ccc(O)c3F)[C@H]21` : 20.08%

----------
- Test system: Rattus norvegicus
- protocol: Biodistribution in thyroid of immature female rat after 1 hr administration of 3 micro Ci (111 kBq) in the absence of 60 microg estradiol
- Type: ADME, organism-based, Thyroid gland
- condition description: in vivo
Quick reference: ID/g of the listed items.
Use % as the unit, but write only the number.

C[C@@H]1Cc2cc(O)c(F)cc2[C@H]2CC[C@@]3(C)[C@@H](CC[C@@]3(O)/C=C\I)[C@H]12	205
C[C@]12CC[C@@H]3c4ccc(O)c(F)c4CC[C@H]3[C@@H]1CC[C@@]2(O)/C=C/I	71.61

Measured ID/g of `C[C@]12CC[C@@H]3c4cc(F)c(O)cc4CC[C@H]3[C@@H]1CC[C@@]2(O)/C=C\I` : 39

----------
- Test system: Rattus norvegicus
- protocol: Biodistribution in thyroid of immature female rat after 3 hour administration of 3 micro Ci (111 kBq) in the absence of 60 microg estradiol
- Assay type: ADME, organism-based, Thyroid gland
- condition description: in vivo
measurement label: ID/g (%)
Use % as the unit, but write only the number.

CO[C@H]1C[C@@]2(C)[C@@H](CC[C@@]2(O)/C=C\I)[C@@H]2CCc3c(ccc(O)c3F)[C@H]21	1446
CO[C@H]1C[C@@]2(C)[C@@H](CC[C@@]2(O)/C=C/I)[C@@H]2CCc3cc(O)c(F)cc3[C@H]21	355
C[C@@H]1Cc2cc(O)c(F)cc2[C@H]2CC[C@@]3(C)[C@@H](CC[C@@]3(O)/C=C\I)[C@H]12	202
C[C@]12CC[C@@H]3c4ccc(O)c(F)c4CC[C@H]3[C@@H]1CC[C@@]2(O)/C=C\I	87.39
C[C@]12CC[C@@H]3c4cc(F)c(O)cc4CC[C@H]3[C@@H]1CC[C@@]2(O)/C=C\I	75.3

Recorded ID/g for `C[C@@H]1Cc2cc(O)c(F)cc2[C@H]2CC[C@@]3(C)[C@@H](CC[C@@]3(O)/C=C/I)[C@H]12` on Rattus norvegicus was 197

Recorded ID/g for `C[C@@H]1Cc2c(ccc(O)c2F)[C@H]2CC[C@@]3(C)[C@@H](CC[C@@]3(O)/C=C/I)[C@H]12` on Rattus norvegicus was 70
